These entries and their values trace back to patent US20200390100A1.

# Tested on: Pharbitis purpurea
# test.method.notes: Pre-emergence herbicidal action, greenhouse, 320 g/ha
# Type: in vivo
# assay.setup: application rate 320 g/ha, Table B12
# Source text: Seeds of monocotyledonous and dicotyledonous weed plants and crop plants were placed in plastic or organic planting pots and covered with soil. […] After about 3 weeks, the effect of the preparations is scored visually in comparison with untreated controls as percentages. […]
recorded.endpoint: Pharbitis purpurea (efficacy in %)
Record the value in %, omitting the unit from your answer.

GET /values?item= CN1CCC(O)N(c2cc(C(F)(F)F)ncn2)C1=O (stereo not drawn) [I.1-506] &system= Pharbitis purpurea returns Pharbitis purpurea (efficacy in %): 100

Log: Pharbitis purpurea, compound CCC(=O)OC1CCN(C)C(=O)N1c1cc(C(C)(C)C)on1 (stereo not drawn) [I.3-162] , Pharbitis purpurea (efficacy in %) = 100

The value of Pharbitis purpurea (efficacy in %) recorded for CN1CCC(O)N(c2noc(C(C)(C)C)c2F)C1=O (stereo not drawn) [I.1-206] when tested on Pharbitis purpurea reads 80
